Data credit: a flash point compilation (Sun et al. 2020)

Quantity name: flash point (°C)

{"columns": ["Compound", "Measurement unit", "flash point"],
 "data": [
  ["CCCC(C)C(C)(C)C (stereo unspecified) [2,2,3-trimethylhexane]", "°C", 15],
  ["N#CCCCCC#N [1,4-dicyanobutane]", "°C", 159],
  ["CCCCCCOC(C)=O [hexylacetate]", "°C", 55],
  ["CC(C)C1CCCCC1=O (stereo unspecified) [2-isopropylcyclohexanone]", "°C", 65],
  ["CCCCCCC#N [heptanenitrile]", "°C", 58]
]}

A = C=C1CCCCC1 [methylenecyclohexane]
B = C=COC(C)(C)C [tert-butylvinylether]
Compare flash point: is it lower for A or for B ? Answer = label.
B
(B: -17 °C, A: -2 °C)

====

Quantity name: flash point (°C)

I = CC(C)CCCCCOC(=O)COc1cc(Cl)c(Cl)cc1Cl [6-methylheptyl 2-(2,4,5-trichlorophenoxy)acetate]
II = C=C1C2CCC(C2)C1(C)C (centres undefined) [2,2-dimethyl-3-methylidenebicyclo[2.2.1]heptane]
III = CCCCCCCCCCCCCCCCCCCC
Lab note: arrange the 3 compounds above from lowest to highest flash point. Returns: the labels listed in the requested order.
II, I, III

====

Quantity name: flash point (°C)

{"columns": ["Compound", "Measurement unit", "flash point"],
 "data": [
  ["CCCCC(=O)CC", "°C", 37.0],
  ["CCCCC(=O)O", "°C", 86.0],
  ["CC(Cl)Cl", "°C", -10.0],
  ["CCC(CC)CO", "°C", 57]
]}

a = CCC(C)C(C)CC (stereo unspecified)
b = CCCCCCCCCOC(C)=O [NONYL ACETATE]
Compare flash point: is it lower for a or for b ? Answer = label.
a

====

Quantity name: flash point (°C)

{"columns": ["Compound", "flash point, °C"],
 "data": [
  ["c1ccc(-c2ccccc2)cc1", 113.00]
]}

A = CCCCCCCC(=O)Oc1c(Br)cc(C#N)cc1Br [(2,6-dibromo-4-cyanophenyl) octanoate]
B = CCC(=O)CC
From the recorded data, which exceeds the other in flash point: A or B ? Answer = label.
A

====

Quantity name: flash point (°C)

In the examples that follow, each entry is paired with its recorded flash point.
{"columns": ["Compound", "Measurement unit", "flash point"],
 "data": [
  ["Cc1cccc(N)c1", "°C", 86],
  ["Cc1ccccc1Br", "°C", 78],
  ["COCCCN", "°C", 23],
  ["CCOC(=O)CC [ethylpropanoate]", "°C", 12]
]}

a = CCc1ccc(F)cc1
b = CC1CCC(=O)CC1
Compare flash point: is it lower for a or for b ? Answer = label.
a

====

Measured flash point, listed per entry for reference.
Give the value, in units of °C, as a plain number.

In the examples that follow, each entry is paired with its recorded flash point.
{"columns": ["Compound", "flash point (°C)"],
 "data": [
  ["CCN(CC)CCO [2-diethylaminoethanol]", 51.50],
  ["CCC(CC)(CO)CO [2,2-diethylpropane-1,3-diol]", 107.00]
]}

Let us examine a further case.
Fill blank: measured flash point of the compound CC(O)CCl (stereo not drawn) [1-chloropropan-2-ol] is ____.
51.00

====

Quantity name: flash point (°C)

{"columns": ["Compound", "Quantity name", "Measured value"],
 "data": [
  ["C=C(C)C(=O)OCC(C)C [isobutylmethacrylate]", "flash point", 41],
  ["CCCCCCC(C)(C)C [2,2-dimethyloctane]", "flash point", 31],
  ["C=C(C)C(=C)C [2,3-dimethyl-1,3-butadiene]", "flash point", -22],
  ["CCCCCCCCCCO [1-decanol]", "flash point", 108],
  ["CC(=O)OCCCc1ccccc1 [3-phenylpropylacetate]", "flash point", 113],
  ["CCc1cccc(C)c1C [1-ethyl-2,3-dimethylbenzene]", "flash point", 65],
  ["CC(C)(C)Cl [2-chloro-2-methylpropane]", "flash point", -23],
  ["C=C(C)C=O [2-methyl-2-propenal]", "flash point", -15]
]}

1 = CCCCCCCCI [1-iodooctane]
2 = CC(C)OC=O [isopropylformate]
From the recorded data, which exceeds the other in flash point: 1 or 2 ? Answer = label.
1

a = CCCCCCCC(=O)OC [methyloctanoate]
b = CC(C)(C)c1ccco1 [2-tert-butylfuran]
c = CCC(=O)C(C)C [2-methyl-3-pentanone]
Order the records by flash point, with each subsequent value no larger than the one before. Returns: the labels listed in the requested order.
a, c, b

A = C[C@@H]1CCC[C@@H]1C [cis-1,2-dimethylcyclopentane]
B = CCCCS [1-butanethiol]
C = CC(C)C(C)O (stereo not given) [3-methyl-2-butanol]
Order the records by flash point, with each subsequent value no larger than the one before. Returns: the labels listed in the requested order.
C, B, A

I = CCCSSCCC [dipropyldisulfide]
II = C=C(C)CCCC [2-methyl-1-hexene]
III = C1=CCCC=C1 [1,3-cyclohexadiene]
Sort the compounds on flash point; start with the lowest figure. Returns: the labels listed in the requested order.
III, II, I
(III: -16 °C, II: -8 °C, I: 66 °C)
